- Assay Notes: Stability in Simulated Gastric Fluid (SGF)
- Format: in vitro ADME
- Parameters: key: % parent compound remaining relative to 0-minute sample
- Run Parameters: % remaining at 1 h in simulated gastric fluid
Readout Kind: SGF (% remaining)
Provide the reading as a plain figure in % remaining.

Q) Quick one: SGF for CC(C)OCCn1c(=S)[nH]c(=O)c2c1ccn2COC(=O)CCNC(=O)[C@@H](N)CO.O=C(O)C(F)(F)F ?
A) 96

Q) Quick one: SGF for CC[C@H](C)[C@H](NC(=O)OC(C)(C)C)C(=O)NCCCCC(=O)OCn1ccc2c1c(=O)[nH]c(=S)n2CCOC(C)C ?
A) 90

Q) Quick one: SGF for CC(C)OCCn1c(=S)[nH]c(=O)c2c1ccn2COC(=O)OCCOCCN.O=C(O)C(F)(F)F ?
A) 97

====

- Assay Notes: Stability in Simulated Intestinal Fluid (SIF)
- Format: in vitro ADME
- Parameters: key: % parent compound remaining relative to 0-minute sample
- Run Parameters: % remaining at 1 h; SIF with pancreatin pH 6.8, 2 μg/mL, 37° C.
Provide the recorded SIF for the entries that follow.
Provide the reading as a plain figure in %.

Q) Quick one: SIF for COCCOCCOC(=O)OCn1ccc2c1c(=O)[nH]c(=S)n2CCOC(C)C [Example 105] ?
A) 84

Q) Quick one: SIF for CC(C)OCCn1c(=S)[nH]c(=O)c2c1ccn2C(C)OC(=O)c1ccccc1 (stereo not drawn) [Example 115] ?
A) 67

====

Provide the recorded SIF for the entries that follow.
- Assay Notes: Stability in Simulated Intestinal Fluid (SIF)
- Assay type: in vitro ADME
- Design: key: % parent compound remaining relative to 0-minute sample
- Run Parameters: % @ 1 h (remaining) in simulated intestinal fluid

Q) Quick one: SIF for C=CCCN(C)C(=O)OCSc1nc(=O)c2c(ccn2COC(=O)N(C)CCC=C)n1CCOC(C)C.O=C(O)C(F)(F)F ?
A) 82% @ 1 h

Q) Quick one: SIF for CCCC(=O)OCn1ccc2c1c(=O)[nH]c(=S)n2CCOC(C)C ?
A) 0% @ 1 h

Q) Quick one: SIF for CC(C)OCCn1c(SCOC(=O)N(C)Cc2ccccc2)nc(=O)c2c1ccn2COC(=O)N(C)Cc1ccccc1.O=C(O)C(F)(F)F ?
A) 99% @ 1 h

Q) Quick one: SIF for CC(C)OCCn1c(SCOC(=O)N(C)CCc2ccccc2)nc(=O)c2[nH]ccc21.O=C(O)C(F)(F)F ?
A) 92% @ 1 h

====

- Assay Notes: Stability in Simulated Gastric Fluid (SGF)
- Format: in vitro ADME
- Parameters: key: % parent compound remaining relative to 0-minute sample
- Run Parameters: bare number, unit or time not given; the 15th table Examples 204-207
Readout Kind: SGF
Note: the reply should be a number with no unit written.

Q) Quick one: SGF for CC(C)OCCn1c(SCOC(=O)Oc2ccccc2)nc(=O)c2[nH]ccc21 ?
A) 61

Q) Quick one: SGF for CCCCOC(=O)OCSc1nc(=O)c2[nH]ccc2n1CCOC(C)C ?
A) 85

Q) Quick one: SGF for CCCCCCCCOC(=O)OCSc1nc(=O)c2c(ccn2COC(=O)OCCCCCCCC)n1CCOC(C)C ?
A) 90

Q) Quick one: SGF for CCCCCCCCOC(=O)OCSc1nc(=O)c2[nH]ccc2n1CCOC(C)C ?
A) 91

====

- Assay Notes: Plasma Stability
- Assay type: in vitro ADME, human
- Run Parameters: % remaining at 1 h; human plasma, 1 μM, 37° C.
Readout Kind: human Plasma stability (%)
Provide the reading as a plain figure in %.

Q) Quick one: human Plasma stability for CC(C)OCCn1c(=S)[nH]c(=O)c2c1ccn2COC(=O)CCCCNC(=O)[C@@H](NC(=O)OC(C)(C)C)C(C)C ?
A) 72

Q) Quick one: human Plasma stability for Cc1ccccc1S(=O)(=O)n1ccc2c1c(=O)[nH]c(=S)n2CCOC(C)C ?
A) 99

Q) Quick one: human Plasma stability for COCCOCCOC(=O)OCn1ccc2c1c(=O)[nH]c(=S)n2CCOC(C)C ?
A) 14

Q) Quick one: human Plasma stability for COc1ccc(CSc2nc(=O)c3[nH]ccc3n2CCOC(C)C)cc1 ?
A) 97

Q) Quick one: human Plasma stability for CC(C)OCCn1c(=S)[nH]c(=O)c2c1ccn2COC(=O)[C@@H]1CCC(=O)N1C(=O)OCc1ccccc1 ?
A) 40

Q) Quick one: human Plasma stability for CC(C)OCCn1c(=S)[nH]c(=O)c2c1ccn2COC(=O)[C@H]1CCCN1C(=O)OCC1c2ccccc2-c2ccccc21 ?
A) 97

Q) Quick one: human Plasma stability for CC(C)OCCn1c(=S)[nH]c(=O)c2c1ccn2C(C)OC(=O)OC1CCN(C(=O)OC(C)(C)C)CC1 (stereo not shown) ?
A) 5

Q) Quick one: human Plasma stability for CCS(=O)(=O)n1ccc2c1c(=O)[nH]c(=S)n2CCOC(C)C ?
A) 98

Q) Quick one: human Plasma stability for CC(C)OCCn1c(=S)[nH]c(=O)c2c1ccn2C(C)OC(=O)N(CC(F)(F)F)CC(F)(F)F (stereo not shown) ?
A) 99

Q) Quick one: human Plasma stability for CC(C)OCCn1c(=S)[nH]c(=O)c2c1ccn2COC(=O)N[C@H](C(=O)OC(C)(C)C)C(C)C ?
A) 86

Q) Quick one: human Plasma stability for CC(C)OCCn1c(=S)[nH]c(=O)c2c1ccn2S(C)(=O)=O ?
A) 98

Q) Quick one: human Plasma stability for COC(=O)[C@H](CCCCN)NC(=O)OCn1ccc2c1c(=O)[nH]c(=S)n2CCOC(C)C.O=C(O)C(F)(F)F ?
A) 62

====

- Assay Notes: Stability in Simulated Gastric Fluid (SGF)
- Assay type: in vitro ADME
- Parameters: key: % parent compound remaining relative to 0-minute sample
- Run Parameters: bare number, no % and no time given
Provide the recorded SGF for the entries that follow.
Note: the reply should be a number with no unit written.

Q) Quick one: SGF for CC(C)OCCn1c(SCOC(=O)N(CC(F)(F)F)CC(F)(F)F)nc(=O)c2[nH]ccc21 ?
A) 98

Q) Quick one: SGF for CC(C)OCCn1c(SCOC(=O)N(CC(F)(F)F)CC(F)(F)F)nc(=O)c2c1ccn2COC(=O)N(CC(F)(F)F)CC(F)(F)F ?
A) 98

Q) Quick one: SGF for CC(C)OCCn1c(SCOC(=O)N(C)CC(F)(F)F)nc(=O)c2[nH]ccc21 ?
A) 99

Q) Quick one: SGF for CC(C)OCCn1c(=S)n(COC(=O)N(CC(F)(F)F)CC(F)(F)F)c(=O)c2c1ccn2COC(=O)N(CC(F)(F)F)CC(F)(F)F ?
A) 95

Q) Quick one: SGF for COCCOCCC(=O)OCn1ccc2c1c(=O)[nH]c(=S)n2CCOC(C)C ?
A) 99

Q) Quick one: SGF for CC(C)OCCn1c(SCOC(=O)N(C)CC(F)(F)F)nc(=O)c2c1ccn2COC(=O)N(C)CC(F)(F)F ?
A) 100

====

- Assay Notes: Plasma Stability
- Format: in vitro ADME, human
- Run Parameters: % remaining at 1 h in human plasma
Provide the recorded human Plasma stability for the entries that follow.
Provide the reading as a plain figure in % remaining.

Q) Quick one: human Plasma stability for CC(C)OCCn1c(=S)[nH]c(=O)c2c1ccn2COC(=O)CCNC(=O)[C@H](Cc1ccccc1)NC(=O)OCC1c2ccccc2-c2ccccc21.O=C(O)C(F)(F)F ?
A) 92

Q) Quick one: human Plasma stability for COC(=O)N1CCCC1C(=O)NCCCCC(=O)OCn1ccc2c1c(=O)[nH]c(=S)n2CCOC(C)C.O=C(O)C(F)(F)F (stereo not shown) ?
A) 0

Q) Quick one: human Plasma stability for CC(C)OCCn1c(=S)[nH]c(=O)c2c1ccn2COC(=O)OCCOCCNC(=O)OC(C)(C)C ?
A) 30

Q) Quick one: human Plasma stability for CC(C)OCCn1c(=S)[nH]c(=O)c2c1ccn2COC(=O)CCCCNC(=O)[C@@H]1CCCN1C(N)=O.O=C(O)C(F)(F)F ?
A) 7

Q) Quick one: human Plasma stability for CC(C)OCCn1c(=S)[nH]c(=O)c2c1ccn2COC(=O)CCCCNC(=O)C1CCCN1C(=O)OC(C)C.O=C(O)C(F)(F)F (stereo not shown) ?
A) 57

Q) Quick one: human Plasma stability for CC(C)OCCn1c(=S)[nH]c(=O)c2c1ccn2COC(=O)CCNC(=O)[C@@H]1CCCN1C(N)=O.O=C(O)C(F)(F)F ?
A) 91

Q) Quick one: human Plasma stability for CC(C)OCCn1c(=S)[nH]c(=O)c2c1ccn2COC(=O)OCCOCCN.O=C(O)C(F)(F)F ?
A) 65

====

Provide the recorded human Plasma stability for the entries that follow.
- Assay Notes: Plasma Stability
- Type: in vitro ADME, human
- Run Parameters: % remaining at 1 h in human plasma
Provide the reading as a plain figure in % remaining.

Q) Quick one: human Plasma stability for CC(C)OCCn1c(=S)[nH]c(=O)c2c1ccn2COC(=O)CCCCNC(=O)[C@@H](N)[C@@H](C)O.O=C(O)C(F)(F)F ?
A) 5

Q) Quick one: human Plasma stability for CC(C)OCCn1c(=S)[nH]c(=O)c2c1ccn2COC(=O)CCCCNC(=O)CN.O=C(O)C(F)(F)F ?
A) 9

Q) Quick one: human Plasma stability for CC(C)OCCn1c(=S)[nH]c(=O)c2c1ccn2COC(=O)CCNC(=O)[C@@H](N)Cc1c[nH]c2ccccc12.O=C(O)C(F)(F)F ?
A) 61
